absorbance at 490 nm for assorted binders
molecular target: M8; experiment: ELISA on coated antigen, column M8
Lab note: write the figure by itself, no unit.

PDL1-23E5 (antibody, V domains shown, Only FR/CDR pieces are tied to the clone) VH: QVQLVQSGAEVVKPGSSVKVSCKASGDTFSRYAISWVRQAPGQAPEWMGRIIPVLGAANYARKFQDRVTITADISTTTAFMELTSLRSEDTAVYYCARSLSGYSLGAFDVWGPGTLVTVSS VL: QLVLTQPPSVSGAPGQSVSISCIGSNSNIGTPYDVHWYQQIPGEAPKLLIYGSTNRPSGVPDRFSGSRSGSSASLDITGLQADDEAYYYCQSYDRSLGVSDVVFGGGTKLTVL: 2.6

Recall and state the measured absorbance at 490 nm for PDL1-22B10 (antibody, V domains shown, Only FR/CDR pieces are tied to the clone) VH: QVQLVQSGAEVKKPGSSVKVSCRASGGTFSSYAISWVRQAPGQGLEWMGRIIPILGIANYAQKFQGRVTITADKSTSTAYMELSSLRSEDTAVYYCARDFVLSGSATVFDPWGQGTLVTVSS VL: QFVLTQPPSVSGAPGQRVTISCTGSSTNIGAGYDVHWYQQLPGKAPKVVIYGNSNRPSGVLDRFSASKSATSASLAITGLQAEDEADYYCQSYDSSLSGYVFGTGTKVTVL .
2.6

Cited source: patent US20190322750A1
